- TARGET UNDER TEST: hCRTH2 receptor (Homo sapiens)
- Construct: expressed in transfected cells; host or cells: HEK293
- PROTOCOL TEXT: Radioligand displacement assay (3H-PGD2) on hCRTH2 receptor membranes
- Assay type: binding
- REPORTED CONDITIONS: antagonistic activity; 3H-PGD2 displacement on HEK293-hCRTH2 membrane fragments
RECORDED ENDPOINT: IC50 (nM)
A number alone suffices; assume nM.

In the examples that follow, each entry is paired with its recorded IC50.
[[record]]
compound = "Cc1[nH]c2ccccc2c1CCC(=O)N1CCc2ccccc2C1c1cc(F)ccc1OCC(=O)O (racemic) [Example 65]"
readout_value = 191

[[record]]
compound = "O=C(O)COc1ccc(Cl)cc1[C@@H]1c2ccc(F)c(F)c2CCN1C(=O)OCc1ccccc1 [Example 229]"
readout_value = 4.95

[[record]]
compound = "O=C(O)COc1ccc(Cl)cc1C1c2ccccc2CCN1C(=O)OCc1ccc(Cl)cc1 (racemic) [Example 272]"
readout_value = 17.1

[[record]]
compound = "C[C@@H](Oc1ccc(F)cc1C1c2ccccc2CCN1C(=O)OCc1ccccc1)C(=O)O (stereo partly drawn) [Example 8]"
readout_value = 39.5

[[record]]
compound = "O=C(O)COc1ccc(Cl)cc1C1c2ccccc2CCN1C(=O)OCC1CCCC1 (racemic) [Example 264]"
readout_value = 13.1


In the following, a different compound is considered.
input: Please provide the recorded IC50 for O=C(O)COc1ccc(F)cc1C1c2cc(F)cc(F)c2CCN1C(=O)OCc1ccccc1 (racemic) [Example 42] , tested on hCRTH2 receptor (Homo sapiens).
output: 6.84

###

Listing: log10(IC50) of selected compounds
- TARGET UNDER TEST: hCRTH2 receptor (Homo sapiens, UniProt Q9Y5Y4)
- Construct: expressed in transfected cells; host or cells: HEK293
- Sequence (Q9Y5Y4 whole entry): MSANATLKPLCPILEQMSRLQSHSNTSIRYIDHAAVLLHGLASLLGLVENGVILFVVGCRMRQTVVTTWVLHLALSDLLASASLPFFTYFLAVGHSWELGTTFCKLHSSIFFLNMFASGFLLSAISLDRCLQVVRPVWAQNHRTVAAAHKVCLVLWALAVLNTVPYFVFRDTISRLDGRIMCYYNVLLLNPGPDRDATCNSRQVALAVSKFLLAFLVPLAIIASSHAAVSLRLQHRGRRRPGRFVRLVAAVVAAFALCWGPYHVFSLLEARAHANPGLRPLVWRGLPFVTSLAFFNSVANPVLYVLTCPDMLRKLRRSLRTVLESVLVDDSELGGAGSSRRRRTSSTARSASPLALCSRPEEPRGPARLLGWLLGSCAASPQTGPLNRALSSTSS
- PROTOCOL TEXT: Radioligand displacement assay (3H-PGD2) on hCRTH2 receptor membranes
- Assay type: binding
- REPORTED CONDITIONS: antagonistic activity, 3H-PGD2 radioligand displacement, HEK293-hCRTH2 membranes
Transform log10 | Measure IC50 | Unit nM

[[record]]
compound = "Cc1nn(CCC(=O)N2Cc3ccccc3C2c2cc(Cl)ccc2OCC(=O)O)c2c(F)cccc12 (single isomer, unassigned) [Example 540]"
target_under_test = "hCRTH2 receptor (Homo sapiens, UniProt Q9Y5Y4)"
readout_value = 2.80

[[record]]
compound = "O=C(O)COc1ccc(Cl)cc1C1c2ccccc2CCN1C(=O)NCc1ccccc1 (racemic) [Example 492]"
target_under_test = "hCRTH2 receptor (Homo sapiens, UniProt Q9Y5Y4)"
readout_value = 1.22

[[record]]
compound = "O=C(O)COc1ccc(F)cc1C1c2ccccc2CN1C(=O)OCc1ccccc1 (racemic) [Example 499]"
target_under_test = "hCRTH2 receptor (Homo sapiens, UniProt Q9Y5Y4)"
readout_value = 1.40

[[record]]
compound = "N#Cc1ncccc1OCC(=O)N1CCc2ccccc2C1c1cc(Cl)ccc1OCC(=O)O (racemic) [Example 480]"
target_under_test = "hCRTH2 receptor (Homo sapiens, UniProt Q9Y5Y4)"
readout_value = 2.02

[[record]]
compound = "Cc1ccc([C@@H]2C[C@H]2C(=O)N2CCc3ccccc3C2c2cc(Cl)ccc2OCC(=O)O)cc1 (mixture of isomers) [Example 420]"
target_under_test = "hCRTH2 receptor (Homo sapiens, UniProt Q9Y5Y4)"
readout_value = 2.01


input: // query log10(IC50) value for entry COc1ccc2c(ccn2CC(=O)N2CCc3ccccc3C2c2cc(Cl)ccc2OCC(=O)O)c1 (racemic) [Example 489]
output: 2.50

input: Another: O=C(O)COc1ccc(Cl)cc1C1c2ccccc2CCN1C(=O)CCn1cnc2ccccc21 (racemic) [Example 451]
output: 1.81
